Tested on: Vero E6 infected with SARS-CoV-2
Assay: SARS-CoV-2 infection rate relative to infected DMSO; higher = more infection, active = 60 or less
Conditions: 24 h
ENDPOINT_NAME: SARS-CoV-2 infection rate (%)
// note: answer is a bare numeric in %

Consider the molecule CCCCCCCCCCCCCC[C@@H](O)[C@@H](O)[C@@H](N)CO [phytosphingosine] (10 µM) and give its measured SARS-CoV-2 infection rate.
108

Consider the molecule COC1(C[S@@+]([O-])c2ccccc2)CCN(CCc2c[nH]c3ccc(F)cc23)CC1 (10 µM) and give its measured SARS-CoV-2 infection rate.
102

Consider the molecule O=C(NCc1cccc(O)c1)Nc1nc(-c2ccncc2)cs1 (10 µM) and give its measured SARS-CoV-2 infection rate.
97.8

Consider the molecule CN=c1nc(-c2ccccc2)n(-c2ccccc2)s1 (10 µM) and give its measured SARS-CoV-2 infection rate.
97.5

Consider the molecule COc1ccc(-c2cc(C(F)F)nn2-c2ccc(S(N)(=O)=O)cc2)cc1F [deracoxib] (10 µM) and give its measured SARS-CoV-2 infection rate.
112

Consider the molecule Cc1cccc(C(=O)O)c1O [hydroxytoluic-acid] (10 µM) and give its measured SARS-CoV-2 infection rate.
106

Consider the molecule C[C@@H]1O[C@@H](O[C@@H]2[C@@H](O)[C@H](OCCc3ccc(O)c(O)c3)O[C@H](CO)[C@H]2OC(=O)/C=C/c2ccc(O)c(O)c2)[C@H](O)[C@H](O)[C@H]1O [verbascoside] (10 µM) and give its measured SARS-CoV-2 infection rate.
104

Consider the molecule CC(C)C(=O)Nc1ccc([N+](=O)[O-])c(C(F)(F)F)c1 [flutamide] (10 µM) and give its measured SARS-CoV-2 infection rate.
112

Consider the molecule CC(=O)[C@H]1CC[C@H]2[C@@H]3CC[C@H]4C[C@](C)(O)CC[C@]4(C)[C@H]3CC[C@]12C [ganaxolone] (10 µM) and give its measured SARS-CoV-2 infection rate.
104

Consider the molecule CCc1nn(CCCN2CCN(c3cccc(Cl)c3)CC2)c(=O)n1CCOc1ccccc1 [nefazodone] (10 µM) and give its measured SARS-CoV-2 infection rate.
106

Consider the molecule C[C@H](NCc1ccc(OCc2cccc(F)c2)cc1)C(N)=O [safinamide] (10 µM) and give its measured SARS-CoV-2 infection rate.
115

Consider the molecule CCCOC(C(=O)OC1CCN(C)CC1)(c1ccccc1)c1ccccc1 [propiverine] (10 µM) and give its measured SARS-CoV-2 infection rate.
41

Consider the molecule CCOC(=O)Nc1ccc2c(c1)N(C(=O)CCN(CC)CC)c1ccccc1S2 [ethacizin] (10 µM) and give its measured SARS-CoV-2 infection rate.
112

Consider the molecule CCOC(=O)c1ccccc1OC(=O)CCCCCCCC(=O)Oc1ccccc1C(=O)OCC (10 µM) and give its measured SARS-CoV-2 infection rate.
100

Consider the molecule Cc1ccc(C(=O)Nc2ccc(Oc3cc4cnn(C)c4cc3-c3cn[nH]c3)c(F)c2)c(=O)n1-c1ccc(F)cc1 (0.833333 µM) and give its measured SARS-CoV-2 infection rate.
106

Consider the molecule COc1ccc2c(C)nc(Nc3nc(C)c(C)c(O)n3)nc2c1 [madrasin] (10 µM) and give its measured SARS-CoV-2 infection rate.
107

Consider the molecule CCCCCCCC/C=C\CCCCCCCC(N)=O [oleamide] (10 µM) and give its measured SARS-CoV-2 infection rate.
94.5

Consider the molecule CN(C)CCOC(c1ccccc1)c1ccccc1.Cn1c(=O)c2[nH]c(Cl)nc2n(C)c1=O [dimenhydrinate] (10 µM) and give its measured SARS-CoV-2 infection rate.
110

Consider the molecule c1ccc2c(c1)OC[C@H](CNCCCOc1ccc3c(c1)OCO3)O2 [osemozotan] (10 µM) and give its measured SARS-CoV-2 infection rate.
106

Consider the molecule CCN1C(=O)NC(c2ccccc2)C1=O (stereo not given) [ethotoin] (10 µM) and give its measured SARS-CoV-2 infection rate.
97

Consider the molecule CCCN1CCCC[C@H]1C(=O)Nc1c(C)cccc1C [ropivacaine] (10 µM) and give its measured SARS-CoV-2 infection rate.
104

Consider the molecule C[C@@H]1C[C@@H]([C@H](O)CC2CC(=O)NC(=O)C2)C(=O)[C@@H](C)C1 [cycloheximide] (10 µM) and give its measured SARS-CoV-2 infection rate.
69

Consider the molecule Cc1cc(-c2nc(-c3ccc(OC(F)(F)F)cc3)no2)nn1Cc1ccnc(N2CCN(C3CC3)CC2)c1 (10 µM) and give its measured SARS-CoV-2 infection rate.
98.5

Consider the molecule CS(=O)(=O)c1ccc(-c2cnc(N)c(C(=O)Nc3ccccc3)n2)cc1 (10 µM) and give its measured SARS-CoV-2 infection rate.
87

Consider the molecule Clc1ccccc1CNC[C@H]1CC[C@H](CNCc2ccccc2Cl)CC1 (10 µM) and give its measured SARS-CoV-2 infection rate.
49

Consider the molecule N[C@@H](CSCCCO)C(=O)O [fudosteine] (10 µM) and give its measured SARS-CoV-2 infection rate.
104

Consider the molecule C[C@H](N)Cn1ccc2cc(F)c(Cl)cc21 (10 µM) and give its measured SARS-CoV-2 infection rate.
90.5

Consider the molecule O=C(O)c1cc(O)c2c(Cl)cc(Cl)cc2n1 [5,7-dichlorokynurenic-acid] (10 µM) and give its measured SARS-CoV-2 infection rate.
104

Consider the molecule CNCC[C@H](Oc1cccc2ccccc12)c1cccs1 [duloxetine] (10 µM) and give its measured SARS-CoV-2 infection rate.
47

Consider the molecule CN(C(=O)c1c(O)c2ccccc2n(C)c1=O)c1ccccc1 [roquinimex] (10 µM) and give its measured SARS-CoV-2 infection rate.
94.5

Consider the molecule O=C(N[C@H]1CN2CCC1CC2)c1cc2cccc(Cl)c2s1 (10 µM) and give its measured SARS-CoV-2 infection rate.
86.5

Consider the molecule O=C(Nc1ccc(S(=O)(=O)Nc2ccccc2Cl)c(Cl)c1)c1ccccn1 (10 µM) and give its measured SARS-CoV-2 infection rate.
114

Consider the molecule CC(Cc1cccc(C(F)(F)F)c1)NCCOC(=O)c1ccccc1 (stereo not given) [benfluorex] (10 µM) and give its measured SARS-CoV-2 infection rate.
104

Consider the molecule O=C(O)CCCCCCNC1c2ccccc2CCc2ccccc21 [amineptine] (10 µM) and give its measured SARS-CoV-2 infection rate.
105

Consider the molecule COC(=O)C1=C(C)N(C)C(C)=C(C(=O)OC)C1c1ccc(C(F)(F)F)cc1 (10 µM) and give its measured SARS-CoV-2 infection rate.
114
